# experimental-target: T1, human GARP (glycoprotein A repetitions predominant, LRRC32) on the cell surface (human, UniProt Q14392 20-662)
# T1 construct: whole, on cells; also called hGARP; free GARP
# T1 sequence (looked up): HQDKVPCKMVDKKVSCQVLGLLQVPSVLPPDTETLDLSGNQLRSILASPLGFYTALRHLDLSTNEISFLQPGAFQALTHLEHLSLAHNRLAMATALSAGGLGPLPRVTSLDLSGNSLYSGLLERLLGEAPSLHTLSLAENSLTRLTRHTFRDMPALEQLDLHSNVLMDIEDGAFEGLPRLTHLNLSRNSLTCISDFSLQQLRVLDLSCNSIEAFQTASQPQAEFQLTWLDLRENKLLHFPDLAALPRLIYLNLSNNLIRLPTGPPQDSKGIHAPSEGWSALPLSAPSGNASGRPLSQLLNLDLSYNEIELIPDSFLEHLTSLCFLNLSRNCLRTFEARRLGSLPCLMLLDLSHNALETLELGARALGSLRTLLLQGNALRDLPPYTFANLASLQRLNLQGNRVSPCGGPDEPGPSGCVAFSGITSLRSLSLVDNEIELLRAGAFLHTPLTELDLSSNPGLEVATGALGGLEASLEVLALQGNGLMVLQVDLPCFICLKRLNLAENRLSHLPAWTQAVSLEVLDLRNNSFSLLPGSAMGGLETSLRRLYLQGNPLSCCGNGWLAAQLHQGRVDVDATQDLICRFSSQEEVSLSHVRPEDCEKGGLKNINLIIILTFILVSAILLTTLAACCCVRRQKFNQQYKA
# method: FACS, Ag(+) cells, culture supernatant, 5 ug/ml
quantity-name: MFI

binder="huPIIO-1VH1VL2 (antibody, V domains shown, Humanized IgG from Expi293; also called H1L2; HuPIIO-1VH1/L2) VH: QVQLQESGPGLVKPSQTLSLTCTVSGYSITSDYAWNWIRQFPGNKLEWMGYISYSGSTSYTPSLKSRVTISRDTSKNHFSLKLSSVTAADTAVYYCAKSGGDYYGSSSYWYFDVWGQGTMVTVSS VL: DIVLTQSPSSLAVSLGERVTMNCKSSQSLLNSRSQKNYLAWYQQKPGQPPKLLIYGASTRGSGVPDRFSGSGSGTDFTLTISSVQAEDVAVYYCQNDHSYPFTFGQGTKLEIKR" quantity_name=MFI observed_result="26.1 MFI"
binder="huPIIO-1VH3VL2 (antibody, V domains shown, Humanized IgG from Expi293, tested as culture supernatant; also called H3L2) VH: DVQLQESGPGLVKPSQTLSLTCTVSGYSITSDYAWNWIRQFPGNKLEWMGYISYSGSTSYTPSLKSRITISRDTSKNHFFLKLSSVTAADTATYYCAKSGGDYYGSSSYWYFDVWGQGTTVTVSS VL: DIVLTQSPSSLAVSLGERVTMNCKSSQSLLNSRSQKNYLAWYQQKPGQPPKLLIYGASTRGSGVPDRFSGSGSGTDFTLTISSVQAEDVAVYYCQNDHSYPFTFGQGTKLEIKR" quantity_name=MFI observed_result="26.4 MFI"
binder="huPIIO-1VH4VL3 (antibody, V domains shown, Humanized IgG from Expi293, tested as culture supernatant; also called H4L3; HuPIIO-1VH4/L3) VH: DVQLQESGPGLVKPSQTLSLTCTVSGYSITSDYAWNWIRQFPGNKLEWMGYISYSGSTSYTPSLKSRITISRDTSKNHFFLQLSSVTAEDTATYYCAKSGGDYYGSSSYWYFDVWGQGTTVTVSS VL: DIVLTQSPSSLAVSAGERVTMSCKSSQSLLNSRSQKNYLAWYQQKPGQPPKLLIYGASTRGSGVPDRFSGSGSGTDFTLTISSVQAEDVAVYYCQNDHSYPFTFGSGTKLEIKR" quantity_name=MFI observed_result="26.7 MFI"
